Source: the supplement of paper PMC6555819

# Tested on: THRa:RXRa (NR concentration 90 nM, RXRa partner concentration 90 nM)
# test.details: PBM binding z-score (relative to random genomic background probes); higher = stronger binding; sequences stand for … in GC…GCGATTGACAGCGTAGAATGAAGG

[
  {
    "biopolymer.sequence": "CTCGAGAGGTCGGTTGAGGTGAGTATACGGATAA",
    "PBM binding z-score": 5
  },
  {
    "biopolymer.sequence": "GGACCGAGGGCATTCGAGTTGATAGCATGGCGAT",
    "PBM binding z-score": 3.46
  },
  {
    "biopolymer.sequence": "TCTTGTAGATCAGCAGGAGGTTAAGAAAGATCGA",
    "PBM binding z-score": 0.885
  },
  {
    "biopolymer.sequence": "TCTTGTAGATCAACAGGAGGTGAAGAAAGATCGA",
    "PBM binding z-score": 0.726
  },
  {
    "biopolymer.sequence": "ATCTCTAGGTAAGACTCAGTTCAGGGAAGAACGC",
    "PBM binding z-score": 1.12
  },
  {
    "biopolymer.sequence": "TTAACAAGGTGAAGGTCGTTGATCCCTCTGTAGA",
    "PBM binding z-score": 2.4
  },
  {
    "biopolymer.sequence": "CGTCCAATGTCAATGCTAGGTCAGTGAAAGCATT",
    "PBM binding z-score": 2.23
  },
  {
    "biopolymer.sequence": "AGAACGAGGGCAATGAGTCGATAGCACGGGTGGC",
    "PBM binding z-score": 0.527
  },
  {
    "biopolymer.sequence": "TCATATACGTAAAAGGTGAAAGTCGGTGTGGTAA",
    "PBM binding z-score": 1.36
  },
  {
    "biopolymer.sequence": "CTACCACGGTGAACAAGGTCGTTGATTACTATTC",
    "PBM binding z-score": 1.93
  },
  {
    "biopolymer.sequence": "GATACAGGGTCAAGCCCAGAGTACGCGTATTGAT",
    "PBM binding z-score": 3.45
  },
  {
    "biopolymer.sequence": "ATATGTACGTTATCGGGTCATTCAGTTTGCGCAT",
    "PBM binding z-score": 3.26
  },
  {
    "biopolymer.sequence": "ACAGACAGGTGATAAAGGTAACTCAGGCTATCAT",
    "PBM binding z-score": 1.15
  },
  {
    "biopolymer.sequence": "ATCTCTGGGTAAAGTTCAGTGAAAGATCGATAGA",
    "PBM binding z-score": 1.11
  },
  {
    "biopolymer.sequence": "TCTGCTACGTCAACGATGGTCAGCTAATCTGCTA",
    "PBM binding z-score": -0.616
  },
  {
    "biopolymer.sequence": "TCGAGTAGGGTAGGGGCATTCAGAATGGCGTCGA",
    "PBM binding z-score": 0.763
  },
  {
    "biopolymer.sequence": "CTACCAAGGTGAACAGGGTCGTTGATTACTATTC",
    "PBM binding z-score": 2.87
  },
  {
    "biopolymer.sequence": "AGAATGAGGTTACCACAGATCAGGGAAACGCTTG",
    "PBM binding z-score": 2.93
  },
  {
    "biopolymer.sequence": "TCGAGTAGGTTACCAATGGGGCATTCATCTTTCT",
    "PBM binding z-score": 0.223
  },
  {
    "biopolymer.sequence": "ATATGTAGGTTAAGGGTCATTCATGTTGGTTCGC",
    "PBM binding z-score": 3.43
  },
  {
    "biopolymer.sequence": "ATCGATAGGTCGAGGTGAGTATAGAGAAAGGGAA",
    "PBM binding z-score": 1.63
  },
  {
    "biopolymer.sequence": "AATACAGGGCCATCGTAGGCCAGAGTACGCACAG",
    "PBM binding z-score": 1.44
  },
  {
    "biopolymer.sequence": "TAGCCTAGGTCATGCGGACCAGTATAGTGTCGGC",
    "PBM binding z-score": 2.84
  },
  {
    "biopolymer.sequence": "GGAACGAGGGCATTCGAGTTGATACCATGGCGAT",
    "PBM binding z-score": 3.34
  },
  {
    "biopolymer.sequence": "TCATATAGGTAAACAGGTGAAATTCCGTAAGTTA",
    "PBM binding z-score": 0.752
  },
  {
    "biopolymer.sequence": "AGAATGAGGTTATACGTAGATCAGAGAAGAAAGT",
    "PBM binding z-score": 2.25
  }
]
